Multi-source literature compilation: pIC50 on UniProt:P07949.
Sequence (P07949 whole entry): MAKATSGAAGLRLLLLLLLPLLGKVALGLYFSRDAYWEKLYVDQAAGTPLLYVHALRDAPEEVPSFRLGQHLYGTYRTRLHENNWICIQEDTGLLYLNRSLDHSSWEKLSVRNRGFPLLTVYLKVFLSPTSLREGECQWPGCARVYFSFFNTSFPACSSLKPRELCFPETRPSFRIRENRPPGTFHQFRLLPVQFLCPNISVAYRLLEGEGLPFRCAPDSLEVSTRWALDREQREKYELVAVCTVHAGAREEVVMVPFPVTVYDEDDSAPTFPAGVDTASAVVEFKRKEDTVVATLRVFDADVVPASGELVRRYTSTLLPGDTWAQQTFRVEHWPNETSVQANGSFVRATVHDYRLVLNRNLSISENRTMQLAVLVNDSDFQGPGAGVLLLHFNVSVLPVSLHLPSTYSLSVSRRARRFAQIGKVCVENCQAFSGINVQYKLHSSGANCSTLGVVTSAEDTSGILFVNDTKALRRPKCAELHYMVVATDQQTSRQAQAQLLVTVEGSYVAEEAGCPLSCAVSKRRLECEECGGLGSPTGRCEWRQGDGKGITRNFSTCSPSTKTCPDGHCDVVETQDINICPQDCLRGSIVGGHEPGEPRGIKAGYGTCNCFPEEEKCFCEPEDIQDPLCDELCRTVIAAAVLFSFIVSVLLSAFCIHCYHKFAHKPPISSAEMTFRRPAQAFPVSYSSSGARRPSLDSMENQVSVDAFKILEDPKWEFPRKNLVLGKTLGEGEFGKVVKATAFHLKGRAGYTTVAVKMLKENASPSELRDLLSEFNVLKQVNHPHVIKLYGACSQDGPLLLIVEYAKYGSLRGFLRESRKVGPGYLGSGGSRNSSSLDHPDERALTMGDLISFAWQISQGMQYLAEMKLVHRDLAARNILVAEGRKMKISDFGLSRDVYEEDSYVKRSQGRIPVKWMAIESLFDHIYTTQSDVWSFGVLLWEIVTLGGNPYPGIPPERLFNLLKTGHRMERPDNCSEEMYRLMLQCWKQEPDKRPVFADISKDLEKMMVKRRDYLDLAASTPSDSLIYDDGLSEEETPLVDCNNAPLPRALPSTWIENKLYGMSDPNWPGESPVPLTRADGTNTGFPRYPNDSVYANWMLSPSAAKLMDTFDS
pIC50: −log10 of the molar value.

Q: Which measured pIC50 belongs to COc1ccc2c(c1)/C(=C/c1[nH]c(C)c(C(=O)NCCCN)c1C)C(=O)N2 , tested on UniProt:P07949?
A: > 6.00

Q: Which measured pIC50 belongs to O=C(Cc1ccc(-c2ccc3nccn3c2)cc1)Nc1cccc(F)c1 , tested on UniProt:P07949?
A: < 4.00

Q: Which measured pIC50 belongs to Cc1ccc(-c2nn(CCN3CCC(CCN(C)C)CC3)c3ncnc(N)c23)cc1 , tested on UniProt:P07949?
A: < 5.00

Q: Which measured pIC50 belongs to COc1cc(=O)n(-c2ccc(Oc3ccnc(N)c3I)c(F)c2)cc1C(=O)NCc1ccc(F)cc1 , tested on UniProt:P07949?
A: < 4.60
